system: PIM2; details: concentration: 1 μM, replicates: in singlicate; n = 1;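 also: KINOMEscan kinase panel screen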
Exercise: state measured %Inh for each of the compounds provided.
One number for each entry, in %.

Answered cases to consult:
compound | unit abbreviation | %Inh
c1ccc(-c2cnc3nccnn23)cc1 | % | 0
Cl.c1ccc(-c2ccc3c(Nc4ccc5[nH]ncc5c4)ccnc3c2)nc1 | % | 0
O=C(NC1CCN(c2ccnc(Nc3ccc(F)cc3)n2)C1)c1cc2ccccc2s1 (centres unmarked) | % | 0
COc1ccc(CNC(=O)NC2CCN(c3ccnc(Nc4ccc(F)cc4)n3)CC2)cc1 | % | 0

Report %Inh for each item below.
1. FC(F)(F)c1ccc(/C=C/c2cncnc2Nc2ccc3[nH]c(Cc4ccccc4)nc3c2)cc1
2. Cc1occc1-c1ncc(OC[C@@H](N)Cc2c[nH]c3ccccc23)cc1-c1ccc2[nH]nc(C)c2c1.O=C(O)C(F)(F)F
3. O=C(Nc1n[nH]c2nc(-c3ccc(O)cc3)ccc12)C1CC1
4. O=C(Nc1cccc(Oc2ccc3nc(NC(=O)C4CC4)cn3n2)c1)c1ccccc1C(F)(F)F

[22, 97.4, 89, 0]
